# system.under.test: UniProt:O60885
# measurement.conditions: read-out: BRD4 IC50 (μM gmean)
measured.metric: IC50

compound="COC(=O)N1c2ccc3c(nc(CC(C(=O)O)c4ccccc4)n3C3COCC(F)(F)C3)c2CC[C@@H]1C (stereo partly shown) [Example 903]" reading="1 to 1000 µM"
compound=COC(=O)N1c2ccc3c(nc(CCn4cccn4)n3CC(=O)N3CC[C@H](NC(C)=O)C3)c2CC[C@@H]1C reading="1 to 1000 µM"
compound=COC(=O)N1c2ccc3c(nc(CCc4ncc(C)o4)n3[C@H]3CC[C@H](C(=O)O)CC3)c2CC[C@@H]1C reading="1 to 1000 µM"

# ---- query compound ----
Exam item: Please look at this compound and report its IC50: `COC(=O)N1c2ccc3c(nc(CCn4cccn4)n3CCNCc3cccnc3)c2CC[C@@H]1C`
Marked response: 1 to 1000 µM

====

# system.under.test: BRD4 (Homo sapiens (Human))
# assay.info: biochemical
# measurement.conditions: BRD4 IC50 (μM gmean)
measured.metric: IC50

Exam item: Please look at this compound and report its IC50: `COC(=O)N1c2ccc3c(nc(Cc4ccccc4)n3CCC(N)=O)c2CC[C@@H]1C`
Marked response: 1 to 1000 µM

====

# system.under.test: BRD4 (Homo sapiens (Human))
# measurement.conditions: read-out: BRD4 IC50 (μM gmean)
Recorded IC50 values for a group of compounds are listed next.

Check out these entries, answers already filled in.
compound="COC(=O)N1c2ccc3c(nc(CC(C(=O)O)c4ccccc4)n3C3CCCC(OC)C3)c2CC[C@@H]1C (stereo partly shown) [Example 455]" system_under_test="BRD4 (Homo sapiens (Human))" measured_metric=IC50 reading="1 to 1000 µM"
compound=COC(=O)N1c2ccc3c(nc(CCn4cccn4)n3CC(=O)NCc3cccnc3)c2CC[C@@H]1C system_under_test="BRD4 (Homo sapiens (Human))" measured_metric=IC50 reading="1 to 1000 µM"
compound=COC(=O)N1c2ccc3c(nc(Cc4ccccc4C(=O)O)n3C3CCCCC3)c2CC[C@@H]1C system_under_test="BRD4 (Homo sapiens (Human))" measured_metric=IC50 reading="1 to 1000 µM"

Exam item: Quote IC50 with test system BRD4 (Homo sapiens (Human)) for `COC(=O)N1c2ccc3c(nc(CCn4ccccc4=O)n3CC(=O)NCc3cc(C)no3)c2CC[C@@H]1C`
Marked response: 1 to 1000 µM

Exam item: Quote IC50 with test system BRD4 (Homo sapiens (Human)) for COC(=O)N1c2ccc3c(nc(C(NC(C)=O)c4ccccc4)n3C3CCC(C(=O)O)CC3)c2CC[C@@H]1C (stereo partly shown)
Marked response: 1 to 1000 µM

Exam item: Quote IC50 with test system BRD4 (Homo sapiens (Human)) for `COC(=O)N1c2ccc3c(nc(Cc4cnc(Cl)cn4)n3[C@@H]3CCC[C@@H](C(=O)O)C3)c2CC[C@@H]1C`
Marked response: 1 to 1000 µM

Exam item: Quote IC50 with test system BRD4 (Homo sapiens (Human)) for `COC(=O)N1c2ccc3c(nc(CCc4ccccc4)n3CCN(C)C)c2CC[C@@H]1C`
Marked response: 1 to 1000 µM

====

Recorded IC50 values for a group of compounds are listed next.
# system.under.test: BRD4 (Homo sapiens (Human))
# measurement.conditions: read-out: BRD4 IC50 (μM gmean)

compound=COC(=O)N1c2ccc3c(nc(CCn4nccn4)n3C3CCS(=O)(=O)CC3)c2CC[C@@H]1C reading="1 to 1000 µM"
compound="COC(=O)N1c2ccc3c(nc(C(O)CC4CCC(F)(F)CC4)n3C3CCCC(C(=O)O)C3)c2CC[C@@H]1C (stereo partly shown) [Example 712]" reading="1 to 1000 µM"
compound="COC(=O)N1c2ccc3c(nc(C(C)OC4CCOCC4)n3C3CCC(C(=O)O)CC3)c2CC[C@@H]1C (stereo partly shown)" reading="1 to 1000 µM"
compound="COC(=O)N1c2ccc3c(nc(CC(C(=O)O)c4ccc(C)c(F)c4)n3C3CCCOC3)c2CC[C@@H]1C (stereo partly shown) [Example 407]" reading="1 to 1000 µM"

Exam item: Please look at this compound and report its IC50: `COC(=O)N1c2ccc3c(nc(Cc4ccccc4)n3[C@H]3CC[C@](C)(C(=O)O)CC3)c2CC[C@@H]1C`
Marked response: 1 to 1000 µM

Exam item: Please look at this compound and report its IC50: `COC(=O)N1c2ccc3c(nc(Cc4cccc(OC)c4)n3C3CC4(CNC4)C3)c2CC[C@@H]1C`
Marked response: 1 to 1000 µM

Exam item: Please look at this compound and report its IC50: `COC(=O)N1c2ccc3c(nc(CCc4ccccc4C(=O)O)n3C3CCCCC3)c2CC[C@@H]1C`
Marked response: 1 to 1000 µM
